Origin of measurements: ChEMBL document CHEMBL3603819

System: Tylonycteris bat coronavirus HKU4
Conditions: at 100 µM

[
  {
    "Compound": "CC(=O)Nc1ccc(N(C(=O)Cn2nnc3ccccc32)C(C(=O)NCc2ccccc2)c2cccc(F)c2)cc1 (stereo not given)",
    "Unit info": "%",
    "inhibition": 32
  },
  {
    "Compound": "CC(C)c1ccc(N(C(=O)c2cccc3c2CCCC3)C(C(=O)NC(C)(C)C)c2cccnc2)cc1 (stereo not given)",
    "Unit info": "%",
    "inhibition": 25
  },
  {
    "Compound": "CC(C)Oc1ccc(N(C(=O)c2ccco2)C(C(=O)NC(C)(C)C)c2cccnc2)cc1 (stereo not given)",
    "Unit info": "%",
    "inhibition": 13
  },
  {
    "Compound": "CC(C)(C)NC(=O)C(c1cccnc1)N(C(=O)Cc1cccnc1)c1ccc(OCF)cc1 (stereo not given)",
    "Unit info": "%",
    "inhibition": 18
  },
  {
    "Compound": "CC(C)(C)NC(=O)C(c1cccnc1)N(C(=O)c1ccco1)c1ccc(Oc2ccccc2)cc1 (stereo not given)",
    "Unit info": "%",
    "inhibition": 19
  },
  {
    "Compound": "COc1ncc(-c2ccc(N(Cc3ccsc3)C(=O)Cn3nnc4ccccc43)cc2)cn1",
    "Unit info": "%",
    "inhibition": 83
  },
  {
    "Compound": "O=C(Nc1ccc(N(C(=O)Cn2nnc3ccccc32)C(C(=O)NCc2ccccc2)c2cccc(F)c2)cc1)C1CCC1 (stereo not given)",
    "Unit info": "%",
    "inhibition": 74
  },
  {
    "Compound": "CC(C)(C)NC(=O)C(c1cncnc1)N(C(=O)c1ccco1)c1ccc(C(C)(C)C)cc1 (stereo not given)",
    "Unit info": "%",
    "inhibition": 16
  },
  {
    "Compound": "CC(C)(C)NC(=O)C(c1cccnc1)N(C(=O)Cc1cccnc1)c1ccc(F)cc1 (stereo not given)",
    "Unit info": "%",
    "inhibition": 47
  },
  {
    "Compound": "CC(C)(C)NC(=O)C(c1ccsc1)N(C(=O)c1ccco1)c1ccc(F)cc1 (stereo not given)",
    "Unit info": "%",
    "inhibition": 16
  }
]
